Test system: Hymenobacter 1 (Hymenobacter glaciei)
Assay: relative growth (AUC of 72 h growth curve relative to DMSO control, dAUC) (ratio); higher = more growth (less inhibition), active = hit call of the paper
Settings: 20 µM
Threshold rule: relative growth greater than or equal to 1 is YES; below that, NO.

>  <Compound>
CNC(=O)c1cc(Cl)cc(C)c1NC(=O)c1cc(Br)nn1-c1ncccc1Cl

>  <Answer Label>
YES

$$$$
>  <Compound>
C[N+]1(C)CCCCC1

>  <Answer Label>
YES

$$$$
>  <Compound>
OC(Cn1cncn1)(c1ccc(F)cc1)c1ccccc1F (configuration not stated)

>  <Answer Label>
YES

$$$$
>  <Compound>
COC(=O)N(OC)c1ccccc1COc1ccn(-c2ccc(Cl)cc2)n1

>  <Answer Label>
YES

$$$$
>  <Compound>
Fc1ccc([C@]2(Cn3cncn3)O[C@H]2c2ccccc2Cl)cc1 (racemic)

>  <Answer Label>
NO

$$$$
>  <Compound>
O=C1C=C(N(Cc2ccc(Cl)nc2)CC(F)F)CO1

>  <Answer Label>
YES

$$$$
>  <Compound>
CC(C)(C)C(O)(CCc1ccc(Cl)cc1)Cn1cncn1 (configuration not stated)

>  <Answer Label>
YES

$$$$
>  <Compound>
CCCCc1c(C)nc(NCC)nc1OS(=O)(=O)N(C)C

>  <Answer Label>
YES

$$$$
>  <Compound>
COCC(=O)N(c1c(C)cccc1C)C(C)C(=O)OC (configuration not stated)

>  <Answer Label>
YES

$$$$
>  <Compound>
N#Cc1nn(-c2c(Cl)cc(C(F)(F)F)cc2Cl)c(N)c1[S+]([O-])C(F)(F)F (configuration not stated)

>  <Answer Label>
YES

$$$$
>  <Compound>
CCOP(=S)(OCC)Oc1nc(Cl)c(Cl)cc1Cl

>  <Answer Label>
YES

$$$$
>  <Compound>
CCC(CC)Nc1c([N+](=O)[O-])cc(C)c(C)c1[N+](=O)[O-]

>  <Answer Label>
NO

$$$$
>  <Compound>
CCc1cccc(C)c1N(C(=O)CCl)[C@@H](C)COC

>  <Answer Label>
YES

$$$$
>  <Compound>
Cc1nc(N(C)C)nc(OC(=O)N(C)C)c1C

>  <Answer Label>
NO

$$$$
>  <Compound>
CC1(C)[C@H](/C=C(\Cl)C(F)(F)F)[C@@H]1C(=O)OC(C#N)c1cccc(Oc2ccccc2)c1 (some centres not stated)

>  <Answer Label>
YES

$$$$
>  <Compound>
O=C1c2ccccc2C(=O)N1SC(Cl)(Cl)Cl

>  <Answer Label>
YES

$$$$
>  <Compound>
Cc1cc(C2CC2)nc(Nc2ccccc2)n1

>  <Answer Label>
YES

$$$$
>  <Compound>
N#Cc1c[nH]cc1-c1cccc2c1OC(F)(F)O2

>  <Answer Label>
NO

$$$$
>  <Compound>
COc1cccc(C(=O)NN(C(=O)c2cc(C)cc(C)c2)C(C)(C)C)c1C

>  <Answer Label>
NO

$$$$
>  <Compound>
CC(Oc1ccc(Oc2nc3ccc(Cl)cc3o2)cc1)C(=O)O (configuration not stated)

>  <Answer Label>
YES

$$$$
>  <Compound>
CCCCN(CCCC)SN(C)C(=O)Oc1cccc2c1OC(C)(C)C2

>  <Answer Label>
YES

$$$$
>  <Compound>
CCCN(CCOc1c(Cl)cc(Cl)cc1Cl)C(=O)n1ccnc1

>  <Answer Label>
NO

$$$$
>  <Compound>
CCOc1ccc(C(C)(C)COCc2cccc(Oc3ccccc3)c2)cc1

>  <Answer Label>
NO

$$$$
>  <Compound>
CCCN(CCC)C(=O)SCc1ccccc1

>  <Answer Label>
YES

$$$$
>  <Compound>
COc1ncc(F)c2nc(S(=O)(=O)Nc3c(F)cccc3F)nn12

>  <Answer Label>
YES

$$$$
>  <Compound>
CO/C=C(/C(=O)OC)c1ccccc1COc1cccc(C(F)(F)F)n1

>  <Answer Label>
YES

$$$$

All values here come from the supplement of paper PMC12067926.
